biological target: Human JAK1 (Homo sapiens); construct: purchased Millipore, Germany; assay: In-vitro kinase inhibition test, JAK1; format: biochemical; details: compound at 1 uM; read-out: JAK1 kinase-phosphorylation inhibitory level (% inhibition)
Sequence (P23458 whole entry): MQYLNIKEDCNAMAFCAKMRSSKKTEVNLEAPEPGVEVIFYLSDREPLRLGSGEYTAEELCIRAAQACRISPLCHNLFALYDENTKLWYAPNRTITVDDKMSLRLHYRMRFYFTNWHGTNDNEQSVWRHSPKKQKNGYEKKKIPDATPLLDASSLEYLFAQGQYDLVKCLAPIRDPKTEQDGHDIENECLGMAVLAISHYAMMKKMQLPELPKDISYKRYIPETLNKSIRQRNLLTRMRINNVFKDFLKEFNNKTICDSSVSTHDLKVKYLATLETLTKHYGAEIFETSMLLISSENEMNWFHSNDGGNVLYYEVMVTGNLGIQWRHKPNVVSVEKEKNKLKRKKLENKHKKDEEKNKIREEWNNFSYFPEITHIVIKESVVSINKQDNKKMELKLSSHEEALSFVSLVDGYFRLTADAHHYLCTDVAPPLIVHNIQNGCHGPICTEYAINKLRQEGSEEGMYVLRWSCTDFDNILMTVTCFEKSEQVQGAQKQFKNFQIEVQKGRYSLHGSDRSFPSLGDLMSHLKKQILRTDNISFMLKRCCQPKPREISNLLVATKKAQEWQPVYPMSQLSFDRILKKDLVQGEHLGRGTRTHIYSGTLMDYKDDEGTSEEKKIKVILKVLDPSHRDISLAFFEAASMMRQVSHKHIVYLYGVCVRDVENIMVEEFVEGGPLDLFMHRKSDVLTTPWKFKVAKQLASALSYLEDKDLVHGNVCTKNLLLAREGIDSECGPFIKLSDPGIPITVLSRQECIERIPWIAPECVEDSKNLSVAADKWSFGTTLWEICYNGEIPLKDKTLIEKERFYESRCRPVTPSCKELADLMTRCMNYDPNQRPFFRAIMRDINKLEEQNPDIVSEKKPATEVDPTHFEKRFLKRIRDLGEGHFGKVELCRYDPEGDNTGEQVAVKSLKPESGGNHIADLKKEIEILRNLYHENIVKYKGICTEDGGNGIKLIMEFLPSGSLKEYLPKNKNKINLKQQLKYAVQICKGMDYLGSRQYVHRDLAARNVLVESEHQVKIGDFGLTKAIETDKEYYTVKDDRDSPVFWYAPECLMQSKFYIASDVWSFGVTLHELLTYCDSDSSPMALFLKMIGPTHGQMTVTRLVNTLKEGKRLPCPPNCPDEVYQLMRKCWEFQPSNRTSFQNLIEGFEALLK
# if value of inhibition at 1 µM reaches 90%, tag MET; if it stays below, tag NOT MET

Problem: Please indicate if the recorded inhibition at 1 µM for CN(c1ncnc2[nH]ccc12)[C@@H]1CCN(S(=O)(=O)c2cccc(F)c2)C1 meets or exceeds 90%.
Solution: MET

Problem: Form field: inhibition at 1 µM at least 90%? Entry: N#Cc1cccc(S(=O)(=O)N2CC[C@@H](N(CC3CC3)c3ncnc4[nH]ccc34)C2)c1
Solution: NOT MET

Problem: # check: inhibition at 1 µM of CCCCN1CC[C@@H](N(C)c2ncnc3[nH]ccc23)C1 is greater than or equal to 90%
Solution: NOT MET

Problem: Quick check: does N#CCC(=O)N1C[C@@H]2CCCN(c3ncnc4[nH]ccc34)[C@@H]2C1 have inhibition at 1 µM greater than or equal to 90%?
Solution: NOT MET

Problem: Confirm if inhibition at 1 µM reported for the molecule CN(c1ncnc2[nH]ccc12)[C@@H]1CCN(S(=O)(=O)c2cccc(C#N)c2)C1 is 90% or above.
Solution: MET

Problem: Given the entry CC(C)CC(=O)N1CC[C@@H](N(C)c2ncnc3[nH]ccc23)C1 , answer whether its inhibition at 1 µM meets or surpasses 90%.
Solution: MET

Problem: Kindly determine if inhibition at 1 µM recorded for CN(c1ncnc2[nH]ccc12)[C@@H]1CCN(S(=O)(=O)c2ccccc2F)C1 is above or exactly 90%.
Solution: MET

Problem: Decide: inhibition at 1 µM of CN(c1ncnc2[nH]ccc12)[C@@H]1CN(C(=O)CC#N)CC1(C)C >= 90%?
Solution: NOT MET

Problem: // inclusive: inhibition at 1 µM at least 90%? input: CCS(=O)(=O)N1CC[C@@H](N(C)c2ncnc3[nH]ccc23)C1
Solution: MET

Problem: Is the recorded value of inhibition at 1 µM equal to or greater than 90% for this molecule? CN(c1ncnc2[nH]ccc12)[C@@H]1CCN(S(=O)(=O)c2ccccc2C#N)C1
Solution: MET

Problem: Confirm if inhibition at 1 µM reported for the molecule N#Cc1cccc(S(=O)(=O)N2CC[C@@H](Nc3ncnc4[nH]ccc34)C2)c1 is 90% or above.
Solution: NOT MET

Problem: Is inhibition at 1 µM for Cc1cccc(S(=O)(=O)N2CC[C@@H](N(C)c3ncnc4[nH]ccc34)C2)c1 at or above 90%?
Solution: MET

Problem: Please tell me: is the molecule N#CCC(=O)N1CCCC(COc2ncnc3[nH]ccc23)C1 (stereo not shown) at or over 90% in terms of inhibition at 1 µM?
Solution: NOT MET

Problem: Is it the case that CN(c1ncnc2[nH]ccc12)[C@@H]1CCN(C(=O)Nc2ccccc2)C1 has inhibition at 1 µM reaching or exceeding 90%?
Solution: MET

Problem: In plain terms: is recorded inhibition at 1 µM at least 90% for CN(c1ncnc2[nH]ccc12)[C@@H]1CCN(C(=O)CN=[N+]=[N-])C1 ?
Solution: MET

Problem: Can N#CCC(=O)N1C[C@H]2CCCN(c3ncnc4[nH]ccc34)[C@H]2C1 be said to have inhibition at 1 µM at or above 90%?
Solution: NOT MET

All figures here come from patent US10407430B2.
